- ASSAYED TARGET: Jak2 (UniProt O60674)
- Sequence (O60674 whole entry, looked up): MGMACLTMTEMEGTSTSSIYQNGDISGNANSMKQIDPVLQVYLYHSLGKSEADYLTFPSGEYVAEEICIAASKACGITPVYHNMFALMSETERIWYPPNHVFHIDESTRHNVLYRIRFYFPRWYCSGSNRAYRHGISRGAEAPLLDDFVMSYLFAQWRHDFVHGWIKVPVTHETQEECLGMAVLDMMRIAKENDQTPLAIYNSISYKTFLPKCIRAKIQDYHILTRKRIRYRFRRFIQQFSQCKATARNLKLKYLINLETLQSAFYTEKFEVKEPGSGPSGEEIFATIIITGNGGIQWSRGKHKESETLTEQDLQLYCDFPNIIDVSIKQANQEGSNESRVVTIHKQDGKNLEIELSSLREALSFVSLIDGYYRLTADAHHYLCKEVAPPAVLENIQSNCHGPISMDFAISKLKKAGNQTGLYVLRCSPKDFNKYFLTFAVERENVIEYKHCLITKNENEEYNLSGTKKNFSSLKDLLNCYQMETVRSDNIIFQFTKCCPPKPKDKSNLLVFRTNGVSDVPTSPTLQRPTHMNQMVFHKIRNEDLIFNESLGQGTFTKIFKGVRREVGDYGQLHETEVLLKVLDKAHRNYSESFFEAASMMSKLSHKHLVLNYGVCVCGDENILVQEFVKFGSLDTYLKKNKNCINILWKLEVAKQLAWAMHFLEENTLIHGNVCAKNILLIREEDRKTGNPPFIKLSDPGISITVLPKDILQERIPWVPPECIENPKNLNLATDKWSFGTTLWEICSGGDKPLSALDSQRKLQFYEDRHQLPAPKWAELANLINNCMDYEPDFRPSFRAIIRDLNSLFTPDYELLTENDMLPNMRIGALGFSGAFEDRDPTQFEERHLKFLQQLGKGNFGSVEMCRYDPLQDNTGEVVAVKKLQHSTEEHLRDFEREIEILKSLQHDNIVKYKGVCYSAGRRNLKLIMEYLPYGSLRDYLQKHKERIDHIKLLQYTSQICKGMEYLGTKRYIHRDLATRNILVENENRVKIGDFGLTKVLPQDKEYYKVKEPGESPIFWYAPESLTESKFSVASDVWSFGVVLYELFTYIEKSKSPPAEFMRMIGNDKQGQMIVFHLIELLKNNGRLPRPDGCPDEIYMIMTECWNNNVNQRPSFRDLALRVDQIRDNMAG
- TEST DESCRIPTION: phosphorylation enrichment, bacterial display (enrichment ratio); higher = better substrate or ligand; peptides without Tyr show the background
Provide the recorded phosphorylation enrichment for the entries that follow.
I only need the number, thanks.

Record PVFIKYLPEWT [PSEN1_Y240_L235P] ; system Jak2 (UniProt O60674); phosphorylation enrichment = 1.62

Record LLKKMYLMLDN [STAT1_Y203] ; system Jak2 (UniProt O60674); phosphorylation enrichment = 0.939

Record TKDTFYKQPMV [GBA_Y451_F456V] ; system Jak2 (UniProt O60674); phosphorylation enrichment = 0.729

Record QQLDEYQELLD [LMNA_Y359] ; system Jak2 (UniProt O60674); phosphorylation enrichment = 1.3

Record KSNSDYVDVLP [SH2D1B_Y127_N122K] ; system Jak2 (UniProt O60674); phosphorylation enrichment = 0.705

Record APQYTYAQGGQ [FLNA_Y1763] ; system Jak2 (UniProt O60674); phosphorylation enrichment = 0.54

Record CRPPYYHRNCM [HGD_Y334_F329C] ; system Jak2 (UniProt O60674); phosphorylation enrichment = 0.992

Record GGDAVYTNGAI [RFX2_Y82] ; system Jak2 (UniProt O60674); phosphorylation enrichment = 0.494

---

Provide the recorded SH2 binding enrichment for the entries that follow.
- ASSAYED TARGET: SHP2-C SH2;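 note: peptide library displayed on the E. coli surface as eCPX fusions, selected cells deep-sequenced, score is each peptide's frequency after selection divided by its frequency in the input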
- TEST DESCRIPTION: SH2 binding enrichment of the phosphorylated peptide, bacterial display (enrichment ratio); higher = better substrate or ligand; peptides without Tyr show the background
I only need the number, thanks.

Record CTTIHYNCMCN [TP53_Y234_Y236C] ; system SHP2-C SH2; SH2 binding enrichment = 0.823

Record DYNPNYCFAGK [ALK_Y1096] ; system SHP2-C SH2; SH2 binding enrichment = 0.788

Record CTTIHYNYMCK [TP53_Y234_N239K] ; system SHP2-C SH2; SH2 binding enrichment = 1.64

Record SHLEDYPFNAE [AKR1B10_Y310] ; system SHP2-C SH2; SH2 binding enrichment = 0.573

Record HLAQRYLIWEC [SCN5A_Y694_R689H] ; system SHP2-C SH2; SH2 binding enrichment = 0.872

Record YEEDSYSHVMA [FDPS_Y388_I391V] ; system SHP2-C SH2; SH2 binding enrichment = 0.69

Record NQELIYEGRRL [TBK1_Y354] ; system SHP2-C SH2; SH2 binding enrichment = 0.612

Record CTTIHYNSMCN [TP53_Y234_Y236S] ; system SHP2-C SH2; SH2 binding enrichment = 1.06

Record FPKARYRWLVL [APTX_Y214_H215R_YF] ; system SHP2-C SH2; SH2 binding enrichment = 0.568

Record NTQRPHFKGGG [TYROBP_Y111_Y111H_YF] ; system SHP2-C SH2; SH2 binding enrichment = 0.956

Record VDSLRYIYPKL [EIF2B3_Y92_A87V] ; system SHP2-C SH2; SH2 binding enrichment = 1.43

Record NIKKEYAKMVQ [PMS2_Y181] ; system SHP2-C SH2; SH2 binding enrichment = 0.791

Record RLCQDYDIIGP [ANK1_Y1073_T1075I] ; system SHP2-C SH2; SH2 binding enrichment = 0.781

Record LIPIKYKAMKK [MYD88_Y257] ; system SHP2-C SH2; SH2 binding enrichment = 0.974

Record HAKKNYGNSSV [HDX_Y197] ; system SHP2-C SH2; SH2 binding enrichment = 0.69

Record FFRDGYMPRQF [GSS_Y270_YF] ; system SHP2-C SH2; SH2 binding enrichment = 0.784

---

Provide the recorded phosphorylation enrichment for the entries that follow.
- ASSAYED TARGET: EPHB2 (UniProt P29323)
- Sequence (P29323 whole entry, looked up): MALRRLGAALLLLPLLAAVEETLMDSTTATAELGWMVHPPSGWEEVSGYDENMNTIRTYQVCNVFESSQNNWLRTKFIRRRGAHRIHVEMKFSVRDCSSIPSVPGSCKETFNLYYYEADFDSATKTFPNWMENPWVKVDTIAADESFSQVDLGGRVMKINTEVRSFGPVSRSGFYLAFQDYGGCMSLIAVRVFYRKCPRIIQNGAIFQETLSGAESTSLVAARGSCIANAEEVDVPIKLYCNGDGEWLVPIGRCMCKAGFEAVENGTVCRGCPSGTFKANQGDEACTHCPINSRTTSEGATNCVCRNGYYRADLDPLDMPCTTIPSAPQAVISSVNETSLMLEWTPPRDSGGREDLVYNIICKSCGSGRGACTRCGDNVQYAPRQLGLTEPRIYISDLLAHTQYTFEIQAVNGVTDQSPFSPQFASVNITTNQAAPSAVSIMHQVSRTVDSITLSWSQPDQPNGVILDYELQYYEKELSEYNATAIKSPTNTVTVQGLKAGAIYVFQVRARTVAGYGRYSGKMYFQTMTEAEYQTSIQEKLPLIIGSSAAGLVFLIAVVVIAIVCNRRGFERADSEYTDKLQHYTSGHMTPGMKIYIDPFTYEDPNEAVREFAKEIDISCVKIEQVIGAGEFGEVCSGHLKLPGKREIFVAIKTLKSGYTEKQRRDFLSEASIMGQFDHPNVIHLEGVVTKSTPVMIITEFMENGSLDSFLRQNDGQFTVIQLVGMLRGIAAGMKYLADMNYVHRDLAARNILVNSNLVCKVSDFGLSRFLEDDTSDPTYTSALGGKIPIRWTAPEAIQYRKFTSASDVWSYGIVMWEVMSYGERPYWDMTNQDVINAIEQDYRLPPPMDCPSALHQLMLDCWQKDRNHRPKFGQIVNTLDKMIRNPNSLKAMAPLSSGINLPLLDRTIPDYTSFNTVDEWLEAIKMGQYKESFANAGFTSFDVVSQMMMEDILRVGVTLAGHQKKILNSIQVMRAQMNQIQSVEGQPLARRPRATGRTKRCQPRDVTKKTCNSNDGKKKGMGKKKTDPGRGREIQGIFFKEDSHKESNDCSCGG
- TEST DESCRIPTION: phosphorylation enrichment, bacterial display (enrichment ratio); higher = better substrate or ligand; peptides without Tyr show the background

The value of phosphorylation enrichment measured for the sequence VGTTAYVAPEA [IRAK4_Y354_M355V] turned out to be 0.445

The value of phosphorylation enrichment measured for the sequence EKKDVYKTGEQ [CFH_Y1008_A1010T] turned out to be 0.411

The value of phosphorylation enrichment measured for the sequence GDYYRYLAEVA [YWHAG_Y133] turned out to be 3.79

The value of phosphorylation enrichment measured for the sequence RDSQIYAVDYE [MRPS34_Y34_L33I] turned out to be 1.94

The value of phosphorylation enrichment measured for the sequence QRRFLYFFSFL [PTEN_Y176_V175L_YF] turned out to be 0.817

The value of phosphorylation enrichment measured for the sequence DYTEAYNPKIK [CLK1_Y305] turned out to be 0.453

The value of phosphorylation enrichment measured for the sequence MGHVNYGAYIN [GLB1_Y485_R482H] turned out to be 0.796

The value of phosphorylation enrichment measured for the sequence AVRYIYTIDGS [DCX_Y105_G100A] turned out to be 0.552

The value of phosphorylation enrichment measured for the sequence CTLNVYRQLHN [LUZP1_Y1036_S1034N] turned out to be 0.585

The value of phosphorylation enrichment measured for the sequence RPYRPYIIRGM [LRP5_Y1531] turned out to be 0.842

The value of phosphorylation enrichment measured for the sequence FEREQYADRTR [RBM4_Y355_A359T_YF] turned out to be 0.478

The value of phosphorylation enrichment measured for the sequence QMQAAYQKAVA [HBD_Y131_V134A] turned out to be 0.292

The value of phosphorylation enrichment measured for the sequence VHNLDYFKQTT [FGFR3_Y647_K650Q_YF] turned out to be 0.545

The value of phosphorylation enrichment measured for the sequence QRPGLYDRPGA [HNRNPH2_Y210_P209L] turned out to be 0.512

The value of phosphorylation enrichment measured for the sequence LVSCTYQLARR [FGFR2_Y608_G613R] turned out to be 1.28

The value of phosphorylation enrichment measured for the sequence HEKKAYAFCGT [RPS6KA3_Y226_S227A] turned out to be 0.46

The value of phosphorylation enrichment measured for the sequence KPMDTYFDSTR [DYNC2H1_Y2230_YF] turned out to be 0.517

The value of phosphorylation enrichment measured for the sequence DDEESYENVPR [FCRL3_Y722_N721S] turned out to be 0.548

The value of phosphorylation enrichment measured for the sequence SHMVDYQPYRK [TEX37_Y25] turned out to be 0.402

---

Provide the recorded phosphorylation enrichment for the entries that follow.
- Tested on: Fer (mouse)
- TEST DESCRIPTION: phosphorylation enrichment, bacterial display (enrichment ratio); higher = better substrate or ligand; peptides without Tyr show the background
I only need the number, thanks.

Record CLMILHRLKER [PTPRR_Y249_Y249H] ; system Fer (mouse); phosphorylation enrichment = 0.516

Record KSIQLYDTPFE [SHB_Y297_G293S_YF] ; system Fer (mouse); phosphorylation enrichment = 3.47

Record VVTFSYKPPGN [RBL2_Y544] ; system Fer (mouse); phosphorylation enrichment = 0.367

Record KFVVVYFRETD [IL17RB_Y447_I451T_YF] ; system Fer (mouse); phosphorylation enrichment = 0.484

Record VEYAKYGSLRG [RET_Y809] ; system Fer (mouse); phosphorylation enrichment = 0.395

Record WNRDKYAATTT [TRIM39_Y439_G436R] ; system Fer (mouse); phosphorylation enrichment = 0.37

Record KQQEIYQELTQ [CD209_Y239] ; system Fer (mouse); phosphorylation enrichment = 3.56

Record PECEWYKNGVK [TTN_Y2112] ; system Fer (mouse); phosphorylation enrichment = 0.719

Record FSALDYKIFFF [WDPCP_Y210_L205F_YF] ; system Fer (mouse); phosphorylation enrichment = 0.541

Record VEDQFYCVDCF [FHL1_Y208_YF] ; system Fer (mouse); phosphorylation enrichment = 0.874

Record VMICAYLLHRG [PTEN_Y138] ; system Fer (mouse); phosphorylation enrichment = 0.688

Record HSQEDYFECFQ [ZIM2_Y411] ; system Fer (mouse); phosphorylation enrichment = 0.614

Record VLAAQYTTVGR [SGSH_Y240_D235V] ; system Fer (mouse); phosphorylation enrichment = 0.394

Record AAVDEYLEYRR [FAM221A_Y17] ; system Fer (mouse); phosphorylation enrichment = 0.401

Record IGEGTYGVLYK [CDK2_Y15_V18L] ; system Fer (mouse); phosphorylation enrichment = 0.808

Record CEDMEYLESKQ [BTK_Y511_A508D] ; system Fer (mouse); phosphorylation enrichment = 0.652

Record RFLERYIFNRE [HLA-DPB1_Y57_YF] ; system Fer (mouse); phosphorylation enrichment = 0.356

Record SQETFYRVSNM [ABCD1_Y181_Q178E_YF] ; system Fer (mouse); phosphorylation enrichment = 0.443

Record KSIDEYLKLVG [RASAL2_Y381_E379D] ; system Fer (mouse); phosphorylation enrichment = 0.374

Record SLTRLCVGENA [NLRP3_Y861_Y861C] ; system Fer (mouse); phosphorylation enrichment = 0.434

Record HDRNTYEKYLG [TF_Y666] ; system Fer (mouse); phosphorylation enrichment = 0.668

Record INPIIYAFVGG [CCR5_Y297_E302G] ; system Fer (mouse); phosphorylation enrichment = 6.66

Record NNIDYYKKTTN [FGFR2_Y657] ; system Fer (mouse); phosphorylation enrichment = 0.6

Record HNQDDYSFPSR [LDLR_Y845_G844D_YF] ; system Fer (mouse); phosphorylation enrichment = 0.573

Record KKHFSYAWPFF [BRDT_Y291_YF] ; system Fer (mouse); phosphorylation enrichment = 0.487

Record MGHVNYGAYIN [GLB1_Y485_R482H] ; system Fer (mouse); phosphorylation enrichment = 0.395

Record GRQGIYTENKR [GPR143_Y231_E235K] ; system Fer (mouse); phosphorylation enrichment = 0.346

Record FSTSPYLLEAA [BRIP1_Y921_YF] ; system Fer (mouse); phosphorylation enrichment = 0.475

Record DYTEAYNPKIK [CLK1_Y305] ; system Fer (mouse); phosphorylation enrichment = 0.358

Record FGMQLYQKFMH [GRB14_Y347_N349K_YF] ; system Fer (mouse); phosphorylation enrichment = 1.92

Record HSREDYFECFQ [ZIM2_Y411_Q408R] ; system Fer (mouse); phosphorylation enrichment = 0.811

Record IEEGTYGVAYR [CDK11B_Y449_V452A] ; system Fer (mouse); phosphorylation enrichment = 5.71

Record HFVFFYSFLLK [PTEN_Y178_R173H_YF] ; system Fer (mouse); phosphorylation enrichment = 1.01

Record YFVVEYRDQKP [MUC17_Y4332] ; system Fer (mouse); phosphorylation enrichment = 0.75

Record VMSMNYRVGAL [BCHE_Y174_V170M] ; system Fer (mouse); phosphorylation enrichment = 0.438

Record HLAQRYLIWEC [SCN5A_Y694_R689H] ; system Fer (mouse); phosphorylation enrichment = 0.616

Record ALAHKYLGGGG [HBB_Y146_H147L] ; system Fer (mouse); phosphorylation enrichment = 0.269

Record QQLDEYQELLD [LMNA_Y359] ; system Fer (mouse); phosphorylation enrichment = 0.598

Record TAPYNYSYIFK [RAB14_Y8] ; system Fer (mouse); phosphorylation enrichment = 1.59

Record KDLPNYNWKSF [KISS1_Y112_N115K] ; system Fer (mouse); phosphorylation enrichment = 0.464

Record QRTMKYTTATE [MCCC1_Y41_G46E] ; system Fer (mouse); phosphorylation enrichment = 0.607

Record ENQEIYQKAFD [KPNA1_Y493] ; system Fer (mouse); phosphorylation enrichment = 0.686

Record HILRVYSGVLP [PCNX4_Y999_G1000S] ; system Fer (mouse); phosphorylation enrichment = 0.612

Record MAQDIYRASFF [ALK_Y1278_R1275Q_YF] ; system Fer (mouse); phosphorylation enrichment = 0.446

Record EEGESHVCSSD [DCX_Y125_Y125H] ; system Fer (mouse); phosphorylation enrichment = 0.519

Record IATAIYSGDKI [UGGT2_Y823] ; system Fer (mouse); phosphorylation enrichment = 0.396

Record ESMQSYDLDFP [UNC13B_Y243_D238E_YF] ; system Fer (mouse); phosphorylation enrichment = 0.506

Record SRVTQYERDFE [SNX1_Y463] ; system Fer (mouse); phosphorylation enrichment = 0.419

Record RLLVVYPWTQR [HBB_Y36] ; system Fer (mouse); phosphorylation enrichment = 0.5

Record KMGNEYVTKGQ [MYH7_Y410_V406M] ; system Fer (mouse); phosphorylation enrichment = 0.385
